SYSTEM UNDER TEST: mouse HER2 (23-653) (Mus musculus, UniProt P70424)
TEST PROTOCOL: TR-FRET competition assay for peptide potency, mouse HER2
Assay type: binding
Design: mouse HER2 (23-653) using a Cy5 labeled peptide as a probe; made in house; host or cells: mammalian cells
CONDITION PARAMETERS: value in parentheses (**): recalculated after further repetition; read-out: moHER2 TR-FRET IC50, recalculated value achieved after further repetition
Positions of bridges follow the written chain, without caps; N, C: chain ends. Non-standard residues stand in square brackets, D forms with d. Residues, ends and D or L forms follow the SMILES beside them. Trp(5-OH) = N[C@@H](Cc1c[nH]c2ccc(O)cc12)C(=O)O; NMePhe(4-F) = CN[C@@H](Cc1ccc(F)cc1)C(=O)O; Lys(N3) = [N-]=[N+]=NCCCC[C@H](N)C(=O)O; NMehPhe = CN[C@@H](CCc1ccccc1)C(=O)O; Aad = N[C@@H](CCCC(=O)O)C(=O)O; Gly(cPr) = N[C@H](C(=O)O)C1CC1; NMeK = CN[C@@H](CCCCN)C(=O)O; NMeDap = CN[C@@H](CN)C(=O)O
MEASUREMENT TYPE: IC50 (nM)
Give a bare numeral; the unit nM is implied.

{"columns": ["COMPOUND", "RESULT UNIT", "OBSERVED VALUE"],
 "data": [
  ["CC(=O)NCCCC[C@H]1C(=O)N[C@@H](Cc2c[nH]c3ccc(O)cc23)C(=O)N[C@@H](Cc2c[nH]c3ccccc23)C(=O)N[C@@H]([C@H](C)O)C(=O)N(C)[C@H](C(=O)N(C)[C@@H](Cc2ccc(F)cc2)C(=O)N[C@@H](CCCCNC(=O)CN2CCN(CC(=O)O)CCN(CC(=O)O)CCN(CC(=O)O)CC2)C(N)=O)CNC(=O)CCC[C@H](NC(C)=O)C(=O)N[C@@H](Cc2ccc(O)cc2)C(=O)N[C@@H](CO)C(=O)N(C)[C@@H](CCc2ccccc2)C(=O)N1C [Example C6]", "nM", 1]
]}

Attention now turns to another entry.
Name the recorded IC50 for CC(=O)NCCCC[C@H]1C(=O)N[C@@H](Cc2c[nH]c3ccc(O)cc23)C(=O)N[C@@H](Cc2c[nH]c3ccccc23)C(=O)N[C@@H](C2CC2)C(=O)N(C)[C@H](C(=O)N(C)[C@@H](Cc2ccc(F)cc2)C(=O)N[C@@H](CCCCN=[N+]=[N-])C(N)=O)CNC(=O)CCC[C@H](NC(C)=O)C(=O)N[C@@H](Cc2ccc(O)cc2)C(=O)N[C@@H](CO)C(=O)N(C)[C@@H](CCc2ccccc2)C(=O)N1C [Example A74] (Ac-[Aad]YS[NMehPhe][NMeK](Ac)[Trp(5-OH)]W[Gly(cPr)][NMeDap][NMePhe(4-F)][Lys(N3)]-NH2; lactam 1-9) .
0.3

----------
SYSTEM UNDER TEST: human HER2 (23-652) (Homo sapiens, UniProt P04626)
TEST PROTOCOL: Surface plasmon resonance (SPR) for assessment of peptide affinity, human HER2
Type: binding
Design: towards human HER2 (23-652) and mouse HER2 (23-653); made in house
CONDITION PARAMETERS: SPR, human HER2 extracellular domain, 25° C., 1:1 binding model; read-out: huHER2-SPR-ONC KD
MEASUREMENT TYPE: Kd (nM)
Answer format: numeric, nM implied, no suffix.

Which Kd is reported for this compound? CC(=O)NCCCC[C@H]1C(=O)N[C@@H](Cc2c[nH]c3ccc(O)cc23)C(=O)N[C@@H](Cc2c[nH]c3ccccc23)C(=O)N[C@@H](C2CC2)C(=O)N(C)[C@H](C(=O)N(C)[C@@H](Cc2ccc(F)cc2)C(=O)N[C@@H](CCCCNC(=O)CN2CCN(CC(=O)O)CCN(CC(=O)O)CCN(CC(=O)O)CC2)C(=O)O)CNC(=O)CCC[C@H](NC(C)=O)C(=O)N[C@@H](Cc2ccc(O)cc2)C(=O)N[C@@H](CO)C(=O)N(C)[C@@H](CCc2ccccc2)C(=O)N1C [Example C12]
0.4

----------
SYSTEM UNDER TEST: human HER2 (23-652) (Homo sapiens, UniProt P04626)
TEST PROTOCOL: TR-FRET competition assay for peptide potency, human HER2
Format: binding
Set-up: towards human HER2 (23-652) and mouse HER2 (23-653); made in house; host or cells: mammalian cells
CONDITION PARAMETERS: huHER2 TR-FRET IC50, TR-FRET competition with Cy5 labeled peptide probe, 0.1 nM human HER2, 24 h incubation
pIC50: −log10 of the molar value. Structures can show the parent of a compound that is named as a salt. Positions of bridges follow the written chain, without caps; N, C: chain ends. Non-standard residues stand in square brackets, D forms with d. Residues, ends and D or L forms follow the SMILES beside them. Trp(5-OH) = N[C@@H](Cc1c[nH]c2ccc(O)cc12)C(=O)O; NMePhe(4-F) = CN[C@@H](Cc1ccc(F)cc1)C(=O)O; NMehPhe = CN[C@@H](CCc1ccccc1)C(=O)O; Gly(cPr) = N[C@H](C(=O)O)C1CC1; NMeC = CN[C@@H](CS)C(=O)O; NMeS = CN[C@@H](CO)C(=O)O
MEASUREMENT TYPE: pIC50

{"columns": ["COMPOUND", "pIC50"],
 "data": [
  ["COCCOCCOCCOCCOCCOCCOCCOCCOCCOCCOCCOCCC(=O)N[C@H]1CCCC(=O)NC[C@@H](C(=O)N(C)[C@@H](Cc2ccc(F)cc2)C(=O)N[C@@H](CCCCNC(=O)c2ccc([N+](C)(C)C)nc2)C(N)=O)N(C)C(=O)[C@H](C2CC2)NC(=O)[C@H](Cc2c[nH]c3ccccc23)NC(=O)[C@H](Cc2c[nH]c3ccc(O)cc23)NC(=O)[C@H](CCCCNC(C)=O)N(C)C(=O)[C@H](CCc2ccccc2)N(C)C(=O)[C@H](CO)NC(=O)[C@H](Cc2ccc(O)cc2)NC1=O [Example F4, TFA salt]", "> 10.00"],
  ["CC(=O)NCCCC[C@H]1C(=O)N[C@@H](Cc2c[nH]c3ccc(O)cc23)C(=O)N[C@@H](Cc2c[nH]c3ccccc23)C(=O)N[C@@H](C2CC2)C(=O)N(C)[C@H](C(=O)N(C)[C@@H](Cc2ccc(F)cc2)C(=O)N[C@@H](CCCCN)C(N)=O)CNC(=O)CCC[C@H](NC(C)=O)C(=O)N[C@@H](Cc2ccc(O)cc2)C(=O)N[C@@H](CO)C(=O)N(C)[C@@H](CCc2ccccc2)C(=O)N1C [Example A40, TFA salt]", "> 10.00"]
]}

In the following, a different compound is considered.
Data request, read-out pIC50, for CN1C(=O)[C@H](CO)NC(=O)[C@H](Cc2ccc(O)cc2)NC(=O)[C@@H](N)CSSC[C@@H](C(=O)N(C)[C@@H](Cc2ccc(F)cc2)C(N)=O)N(C)C(=O)[C@H](C2CC2)NC(=O)[C@H](Cc2c[nH]c3ccccc23)NC(=O)[C@H](Cc2c[nH]c3ccc(O)cc23)NC(=O)[C@H](CO)N(C)C(=O)[C@@H]1CCc1ccccc1 [Example A54, TFA salt] (H-CYS[NMehPhe][NMeS][Trp(5-OH)]W[Gly(cPr)][NMeC][NMePhe(4-F)]-NH2; disulfide 1-9)
< 6.00

----------
Each entry below lists one item and its recorded pIC50 value.
SYSTEM UNDER TEST: human HER2 (23-652) (Homo sapiens, UniProt P04626)
TEST PROTOCOL: TR-FRET competition assay for peptide potency, human HER2
Type: binding
Parameters: towards human HER2 (23-652) and mouse HER2 (23-653); made in house; host or cells: mammalian cells
CONDITION PARAMETERS: TR-FRET competition with Cy5 labeled peptide probe, 0.1 nM human HER2, 24 h incubation; read-out: huHER2 TR-FRET IC50
pIC50: −log10 of the molar value.

# example entries with known answers
{"columns": ["COMPOUND", "SYSTEM UNDER TEST", "pIC50"],
 "data": [
  ["CC(=O)NCCCC[C@H]1C(=O)N[C@@H](Cc2c[nH]c3ccc(O)cc23)C(=O)N[C@@H](Cc2c[nH]c3ccccc23)C(=O)N[C@@H](C2CC2)C(=O)N(C)[C@H](C(=O)N(C)[C@@H](Cc2ccc(F)cc2)C(=O)N[C@@H](CCCCNC(=O)CN2CCN(CC(=O)O)CCN(CC(=O)O)CCN(CC(=O)O)CC2)C(N)=O)CNC(=O)CCC[C@H](NC(=O)CO)C(=O)N[C@@H](Cc2ccc(O)cc2)C(=O)N[C@@H](CO)C(=O)N(C)[C@@H](CCc2ccccc2)C(=O)N1C [Example C15]", "human HER2 (23-652) (Homo sapiens, UniProt P04626)", "> 10.00"],
  ["CC(=O)NCCCC[C@H]1C(=O)N[C@@H](Cc2c[nH]c3ccc(O)cc23)C(=O)N[C@@H](Cc2c[nH]c3ccccc23)C(=O)N[C@@H](C2CC2)C(=O)N(C)[C@H](C(=O)N(C)[C@@H](Cc2ccc(F)cc2)C(=O)N[C@@H](CCCCNC(=O)CN2CCN(CC(=O)O)CCN(CC(=O)O)CCN(CC(=O)O)CC2)C(N)=O)CNC(=O)CCC[C@H](NC(=O)CC(=O)O)C(=O)N[C@@H](Cc2ccc(O)cc2)C(=O)N[C@@H](CO)C(=O)N(C)[C@@H](CCc2ccccc2)C(=O)N1C [Example C10]", "human HER2 (23-652) (Homo sapiens, UniProt P04626)", "> 10.00"]
]}

Alright, here's another compound for you.
GET /values?readout=pIC50&item= CC(=O)NCCCC[C@H]1C(=O)N[C@@H](Cc2c[nH]c3ccc(O)cc23)C(=O)N[C@@H](Cc2c[nH]c3ccccc23)C(=O)N[C@@H](C2CC2)C(=O)N(C)[C@H](C(=O)N(C)[C@@H](Cc2ccc(F)cc2)C(=O)N[C@@H](CCCCNC(=O)CN2CCN(CC(=O)O)CCN(CC(=O)O)CCN(CC(=O)O)CC2)C(N)=O)CNC(=O)CCC[C@H](NC(=O)CCC(=O)O)C(=O)N[C@@H](Cc2ccc(O)cc2)C(=O)N[C@@H](CO)C(=O)N(C)[C@@H](CCc2ccccc2)C(=O)N1C [Example C11]
> 10.00
